Recorded values, source ChEMBL document CHEMBL1201862.

- study.target: UniProtKB P0AE70
- Sequence (P0AE70 whole entry): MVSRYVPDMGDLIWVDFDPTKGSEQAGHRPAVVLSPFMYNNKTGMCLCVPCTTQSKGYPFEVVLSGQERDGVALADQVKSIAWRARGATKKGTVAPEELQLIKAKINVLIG
- assay.method.text: MazF toxin RNase activators, dose response, biochemical, fluorescence, single-stranded RNA substrate, uHTS hits (AID 588481)
- Type: functional
Activity calls are given as the source filed them. Cut-off read from the data, not from the text of the source: active = EC50 of 20 µM or less and inactive = more.
Form field: EC50 (one value per entry).

Known EC50 results, listed for orientation:
COC(=O)CSc1nc2cc(C)ccc2cc1C#N; > 99 µM (inactive)
CC(=O)n1cc(/C=C2/N=C(c3ccccc3)OC2=O)c2ccccc21; > 99 µM (inactive)
Nc1c(C(=O)NC2CCCC2)sc2nc(-c3cccs3)ccc12; > 99 µM (inactive)

Turning now to a further molecule:
Q: Entry under review: `CCCCn1c(O)c(N=Nc2ccccc2O)c2ccccc21` . Reported EC50?
Ans: 44.9 µM (inactive)
